System: Plasmodium berghei
Experiment: Screen against P. berghei liver stage (PbLuc), transformed with Luciferase, at 2uM
Type: functional, HepG2
Conditions: tested at 2 uM
The campaign covered roughly 68,000 compounds. About 2,700 (4%) showed an effect of 50% or more. Only a selection was taken, and strong results are over-represented in it overall.
This listing pairs compounds with measured INHIBITION.
Kindly provide the numeric value in % only, without the unit symbol.

Use the examples below as a reference point.
CN1CCCC(CCC(=O)N2CCc3sc(C(=O)N(C)C)cc3C2)C1 (configuration not stated) : 74.44
Cc1cc(CNC(=O)N2CCN(Cc3ccccc3)C[C@H]2C)on1 : -4.53
Cc1cnn(CC2CCCN2CC(=O)Nc2nc(C)cs2)c1 (configuration not stated) : -54.73

**Query** Item under review: CC[C@@H]1N(Cc2ccc(F)cc2)CCC[C@]12CCC(=O)N2C . Reported INHIBITION?
**Result** 25.46

**Query** Item under review: COC(=O)CN(C(=O)C(C)c1c(F)cccc1F)c1cccc(C)n1 (configuration not stated) . Reported INHIBITION?
**Result** -23.76

**Query** Item under review: CC(C)N(C(=O)CCc1ccco1)C1CCOCC1 . Reported INHIBITION?
**Result** 76.6

**Query** Item under review: CC[C@@H]1N(Cc2ccsc2)CCC[C@]12CCC(=O)N2CCOC . Reported INHIBITION?
**Result** -27.69

**Query** Item under review: NCC1(c2cccc(C(F)(F)F)c2)CC1 . Reported INHIBITION?
**Result** 74.11

**Query** Item under review: CC(C)S(=O)(=O)N1CCN(C(=O)c2cnn(C)c2Cl)CC1 . Reported INHIBITION?
**Result** 12.98

**Query** Item under review: CC(C)COC(C)C(=O)N1CCCCCC1 (configuration not stated) . Reported INHIBITION?
**Result** 7.46

**Query** Item under review: CCc1cc(NCCN2CCNC2=O)n2nc(C)c(C)c2n1 . Reported INHIBITION?
**Result** -35.07

**Query** Item under review: CC[C@@H]1N(Cc2ccsc2)CCC[C@]12CCC(=O)N2C . Reported INHIBITION?
**Result** 62.46

**Query** Item under review: CCCn1nccc1NC(=O)CN1CCC[C@H]1CO . Reported INHIBITION?
**Result** 13.53

----------
This listing pairs compounds with measured INHIBITION.
System: Plasmodium berghei
Assay: Screen against P. berghei liver stage (PbLuc), transformed with Luciferase, at 2uM
Type: functional, HepG2
Details: tested at 2 uM
Out of some 68,000 compounds screened, about 2,700 (4%) showed an effect of 50% or more. What follows is part of a selection rich in strong results, with near analogues and random picks from the rest.
Kindly provide the numeric value in % only, without the unit symbol.

Use the examples below as a reference point.
COc1ccc(Oc2nccnc2C2CCN(C(C)=O)CC2)cc1 : 12
CC(=O)NCC(=O)N1Cc2cc(C#N)ccc2C1c1cnco1 (stereo unspecified) : -9.91
Cc1cnc2n(c1=O)CC(C(=O)NCc1ccccc1Cl)CS2 (stereo unspecified) : 39.58
CC(C)OCc1cccc(CNc2cnn(C)c(=O)c2Cl)c1 : 4.18
CC(CC(=O)NS(=O)(=O)c1ccc2c(c1)OCCO2)c1ccc(F)cc1 (stereo unspecified) : 61.3
O=C([C@@H]1COC[C@H]2CN(c3ccncn3)C[C@H]21)N1CCCCO1 : 40.64
O=C(Nc1nc(-c2ccccc2)ns1)N1CCN(C(=O)C2CC2)CC1 : 7.3
CCc1c(C)nc2cc(C3CCN(Cc4ccc(F)cc4)C3)nn2c1O (stereo unspecified) : 40.31

**Query** So what INHIBITION did CCc1c(C)nc2cc(C3CCN(Cc4cccnc4)C3)nn2c1O (stereo unspecified) get with Plasmodium berghei?
**Result** 31.56
